# system: ABCC4 (Homo sapiens, UniProt O15439)
# Sequence (O15439 whole entry): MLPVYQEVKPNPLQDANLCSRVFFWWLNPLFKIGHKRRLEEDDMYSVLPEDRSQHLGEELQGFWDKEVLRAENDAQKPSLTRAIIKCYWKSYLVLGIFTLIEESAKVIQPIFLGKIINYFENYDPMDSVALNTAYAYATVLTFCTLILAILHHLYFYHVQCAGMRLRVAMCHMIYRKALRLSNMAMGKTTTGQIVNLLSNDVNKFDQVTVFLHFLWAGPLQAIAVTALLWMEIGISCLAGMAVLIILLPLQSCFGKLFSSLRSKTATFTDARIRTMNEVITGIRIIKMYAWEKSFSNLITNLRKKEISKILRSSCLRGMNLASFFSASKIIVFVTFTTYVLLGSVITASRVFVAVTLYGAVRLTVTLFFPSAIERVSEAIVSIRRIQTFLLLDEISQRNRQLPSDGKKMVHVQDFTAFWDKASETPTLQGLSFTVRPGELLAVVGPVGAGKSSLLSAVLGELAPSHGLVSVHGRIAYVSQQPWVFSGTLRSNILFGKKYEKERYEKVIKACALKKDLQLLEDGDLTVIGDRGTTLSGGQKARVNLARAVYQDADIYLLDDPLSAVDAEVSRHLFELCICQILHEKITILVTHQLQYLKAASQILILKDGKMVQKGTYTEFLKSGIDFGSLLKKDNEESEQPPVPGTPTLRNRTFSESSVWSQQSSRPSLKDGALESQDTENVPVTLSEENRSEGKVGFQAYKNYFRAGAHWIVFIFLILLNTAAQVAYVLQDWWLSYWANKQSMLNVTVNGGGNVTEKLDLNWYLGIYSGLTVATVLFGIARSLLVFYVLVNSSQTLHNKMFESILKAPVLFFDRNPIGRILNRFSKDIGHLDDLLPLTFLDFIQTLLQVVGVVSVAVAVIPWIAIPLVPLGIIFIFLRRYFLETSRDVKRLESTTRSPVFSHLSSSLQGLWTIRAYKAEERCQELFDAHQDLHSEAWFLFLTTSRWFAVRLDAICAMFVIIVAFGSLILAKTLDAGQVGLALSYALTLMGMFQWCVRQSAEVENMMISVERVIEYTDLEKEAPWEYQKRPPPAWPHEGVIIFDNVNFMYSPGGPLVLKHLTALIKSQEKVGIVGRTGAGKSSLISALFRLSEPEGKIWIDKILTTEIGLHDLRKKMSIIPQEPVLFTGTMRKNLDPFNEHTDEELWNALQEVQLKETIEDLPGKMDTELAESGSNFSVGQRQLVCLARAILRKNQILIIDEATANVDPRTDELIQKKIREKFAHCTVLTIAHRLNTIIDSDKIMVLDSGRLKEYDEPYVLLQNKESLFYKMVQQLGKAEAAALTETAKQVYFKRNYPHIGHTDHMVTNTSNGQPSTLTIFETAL
# protocolDetails: biochemical
# Assay type: biochemical
# conditionInfo: 34°C; cAMP-efflux, inside-out vesicles; read-out: ABCC4 Ki
# Experimental: Freshly collected EDTA blood from healthy donors (n = 35) was prepared at 0°C–4°C, starting by separating the erythrocytes from plasma by centrifugation at 2,300 g for approximately 15 min. […] The resulting collection of radioactivity upon the filter, was later quantified by using a Packard TopCount NXT (Packard, Downers Grove, IL, United states) after adding scintillation fluid (MicroScint-O, PerkinElmer, Groningen, Netherlands). […]
resultType: Ki (nM)

| smilesEntry | resultType | numericResult |
| --- | --- | --- |
| Nc1cc(-c2ccncc2)c[nH]c1=O | Ki | 730 |

Each recorded value in this set is attributed to paper PMC9326216.
